target: tau (Homo sapiens); assay: MCE Phenols Library screening, tau biosensor cell seeding assay (AvZ); format: cell-based; conditions: puncta, replicate 1
Sequence (P10636 623-695 limits assumed): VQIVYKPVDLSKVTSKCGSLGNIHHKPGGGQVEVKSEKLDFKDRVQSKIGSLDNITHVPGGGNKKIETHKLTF
Hi, to clarify the labels: yes covers raw data 1 from 30000 upward, no covers anything below 30000.

Textbook exercise: given the entry O=c1cc(O)cc(/C=C/c2ccc(O)c(O)c2)o1 , state whether its raw data 1 is greater than or equal to 30000. yes

Could you please find out whether COc1cc2oc(-c3ccccc3)cc(=O)c2c(O)c1OC has raw data 1 that meets 30000 or exceeds it? no

I'd appreciate it if you could say whether CC(C)=CCC/C(C)=C/Cc1cc(-c2coc3cc(O)ccc3c2=O)ccc1O has raw data 1 at least equal to 30000. no

Record O=C(/C=C/c1ccc(O)cc1)CC(=O)/C=C/c1ccc(O)cc1 ; criterion: raw data 1 no lower than 30000. Met? yes

Quick check: does CC(C)=CCc1c(O)cc2c(c1O)C(=O)C[C@@H](c1ccc(O)cc1)O2 have raw data 1 greater than or equal to 30000? no

Tell me whether raw data 1 is at least 30000 here: O=C(O[C@@H]1Cc2c(O)cc(O)cc2O[C@@H]1c1cc(O)c(O)c(O)c1)c1cc(O)c(O)c(O)c1 [(-)-Epigallocatechin Gallate] no

Does the compound Oc1ccc(OC2CCCCO2)cc1 (stereo not drawn) have recorded raw data 1 that is 30000 or more? yes

hey, is raw data 1 for this one >= 30000? COc1cc(-c2cc(=O)c3c(O)c(OC)c(O)cc3o2)cc(O)c1OC no

Would you say CC(C)=CCc1cc(-c2coc3cc(O)ccc3c2=O)ccc1O shows raw data 1 at minimum 30000? yes

Please tell me: is the compound COc1cc(O)c2c(=O)c(OC)c(-c3ccc(OC)c(O)c3)oc2c1 at or over 30000 in terms of raw data 1? no

Given Cc1cc(O)cc(O)c1 , state whether its raw data 1 is at least 30000. no
